Test system: SNB-75
Assay: NCI tumour cell line growth inhibition, 48 h
Activity calls are given as the source filed them. No stated cut-off is given here; in the data, active = GI50 up to about 1.1 µM and inactive = higher.

- compound: "Cc1cccc(C(C)(C)C)c1NC(=O)CCc1n[nH]c(=S)o1"
  GI50: "> 100 µM (inactive)"
- compound: "COC(=O)C1C(O)C(C)C(O)C(C)(O)C=C(C)C2=C3C(=C(C)C(=O)c4c(O)c(c(C)c(OC(C)=O)c43)NC(=O)C(C)=C/C=C\\C(C)(O)C(O)C(C)C1O)OCO2 (stereo not given)"
  GI50: "> 100 µM (inactive)"
- compound: "COc1cc2cccc(/N=C\\c3ccccc3Cl)c2cc1OC"
  GI50: "> 100 µM (inactive)"
- compound: "CSc1nc(C)cc(N(C)c2ccccc2)n1"
  GI50: "27.1 µM (inactive)"
- compound: "CC(=O)c1c(O)c2c([nH]c1=O)CCCC2"
  GI50: "10.6 µM (inactive)"

====

Test system: LOX IMVI
Test: NCI tumour cell line growth inhibition, 48 h
The source made the active and inactive calls. Cut-off read from the data, not from the text of the source: active = GI50 up to about 1.1 µM and inactive = higher.

- compound: "CN(O)C(=O)CCC(NC(=O)CCC(N)C(=O)O)C(=O)NCC(=O)O (stereo unspecified)"
  GI50: "> 100 µM (inactive)"
- compound: "Clc1ccc(/C=N/c2ccc3c(c2)Cc2ccccc2-3)c(Cl)c1"
  GI50: "92.9 µM (inactive)"
- compound: "CC(=O)c1ccc(-c2ccc(C(C)=O)s2)s1"
  GI50: "> 100 µM (inactive)"
- compound: "Cc1cc(O)nc(NN2C(Cl)C(=O)C2c2cccc(Cl)c2)n1 (stereo unspecified)"
  GI50: "14.4 µM (inactive)"
- compound: "Clc1ccc(-c2ccc(-c3nnc(CCc4nnc(-c5ccc(-c6ccc(Cl)cc6)o5)o4)o3)o2)cc1"
  GI50: "> 100 µM (inactive)"
- compound: "c1ccc2c[n+](Cc3ccnc4ccccc34)ccc2c1"
  GI50: "> 100 µM (inactive)"
- compound: "Clc1ccccc1-c1nn2c(CCCCCCCCc3nnc4sc(-c5ccccc5Cl)nn34)nnc2s1"
  GI50: "63.1 µM (inactive)"
- compound: "N/N=C(\\CCN1CCCC1)CC(c1ccccc1)c1c(O)c2ccccc2oc1=O (stereo unspecified)"
  GI50: "> 100 µM (inactive)"
- compound: "Nc1ccn(C2OC(COP(=O)(O)O)C(O)C2O)c(=O)n1 (stereo unspecified)"
  GI50: "3.08 µM (inactive)"
- compound: "C/C(CC(=O)Nc1ccccc1)=N\\NC(N)=S"
  GI50: "> 100 µM (inactive)"
- compound: "Fc1ccc(C2SCc3nc4ccccc4n32)cc1Cl (stereo unspecified)"
  GI50: "17.9 µM (inactive)"

====

Tested on: A498
Experiment: NCI tumour cell line growth inhibition, 48 h
Activity calls are given as the source filed them. Rule as the data show it: active = GI50 up to about 1.1 µM and inactive = higher.
Possible outcomes: class 1 (active), class 0 (inactive)

- compound: "CC(C)CC(CNC(Cc1ccc(Cl)cc1)C(N)=O)NC(=O)C(Cc1c[nH]cn1)NC(=O)CNC(=O)C(NC(=O)C(C)NC(=O)C(Cc1c[nH]c2ccccc12)NC(=O)C(CCC(=O)O)NC(=O)C(N)Cc1ccccc1)C(C)C (centres undefined)"
  target.of.assay: "A498"
  discrete.label: "class 0"
- compound: "CCOC(=O)c1c(/C=N\\Nc2ccccc2)nc2ccccc2c1-c1ccccc1"
  target.of.assay: "A498"
  discrete.label: "class 0"
- compound: "CC(=O)O[C@H]1CC[C@@]2(C)C(=CC[C@H]3C(CC#N)[C@@](C)(C#N)CCC32)C1 (some centres undefined)"
  target.of.assay: "A498"
  discrete.label: "class 0"
- compound: "C[n+]1ccc(Nc2ccc(NC(=O)c3ccc(Nc4cc[n+](C)c5ccc([N+](=O)[O-])cc45)cc3[N+](=O)[O-])cc2)cc1"
  target.of.assay: "A498"
  discrete.label: "class 0"
- compound: "COC(=O)c1cc(C#N)[nH]c1-c1ccc(Br)s1"
  target.of.assay: "A498"
  discrete.label: "class 1"
- compound: "CC(=O)c1c(-c2ccccc2)c(-c2ccc(OCCN(C)C)cc2)n2ccccc12"
  target.of.assay: "A498"
  discrete.label: "class 0"
- compound: "CCCC(CCN)(CCN)[N+](=O)[O-]"
  target.of.assay: "A498"
  discrete.label: "class 0"
- compound: "Cc1ccc(S(=O)(=O)NNC(=O)Nc2ccc(Cl)cc2)cc1"
  target.of.assay: "A498"
  discrete.label: "class 0"
- compound: "CC(=O)c1ccc(NC(=O)C(=O)Nn2c(S)nc3ccccc3c2=O)cc1"
  target.of.assay: "A498"
  discrete.label: "class 0"
